Assay: DUSP6 inhibitors restoring Erk phosphorylation by chemical complementation, primary imaging in DUSP6-transfected HeLa (AID 609)
Conditions: HeLa MKP-3 transfected, phospho-Erk imaging KS statistic; measured here: nuclear c-Myc green intensity z-score; at 10 µM; cells stimulated with TPA for 15 min
Measured z-score, listed per entry.
No unit in the answer, only the number.

CCCCCOc1ccccc1C(=O)NCCCC(=O)O	-0.837
Nc1c2c(nc3ccccc13)N(c1ccccc1)CC2	-0.531
O=S(=O)(N[C@@H]1C[C@H]2CC[C@@H]1C2)c1cccs1	-0.527
CCN(CC)CCN1C(=O)c2ccccc2NC1c1cc(OC)c(OC)c(OC)c1 (centres undefined)	-1.27
CCC(=O)Nc1cccc(-c2nnc(SCC(=O)NCc3ccco3)n2C)c1	-0.507

// z-score value for CCOc1ccc(C2C=C(c3ccccc3)Nc3ncnn32)cc1 (centres undefined) : 0.992

// z-score value for CC1(C)Cc2c(C#N)c(N3CCN(C(=O)c4ccccc4)CC3)nc(-c3ccco3)c2CS1 : 0.824

// z-score value for CCC(=O)Nc1nc(C)c(Oc2ccccc2)c(=O)[nH]1 : -0.286

// z-score value for O=C(Nc1nnc(SCc2ccccc2F)s1)c1ccco1 : -0.419

// z-score value for Cc1ccc(Cn2ncc3c(N4CCN(Cc5ccc(Cl)cc5)CC4)ncnc32)cc1 : 0.343

// z-score value for CCC(=O)NC1(C(F)(F)F)C(=O)Nc2c1c(=O)[nH]c(=O)n2Cc1ccco1 (centres undefined) : 0.161

// z-score value for CCOCCn1c(SCc2c(F)cccc2Cl)nc2c1c(=O)[nH]c(=O)n2C : 0.0694

// z-score value for CCN(CC)Cc1c(O)ccc2c(C)c(CC(=O)OC)c(=O)oc12 : -0.319

// z-score value for CCOc1ccc(C2=Nn3c(nnc3-c3ccccc3OC)SC2)cc1 : 0.121

// z-score value for CCOC(=O)c1[nH]c2ccc(F)cc2c1N=C(C)N(CC)CC : 0.938

// z-score value for COc1cccc(NC(=O)C2CC(=O)n3cnnc3S2)c1 (centres undefined) : -1.1

// z-score value for CC1(C(=O)CSc2n[nH]c(-c3ccccc3Cl)n2)CCC(=O)O1 (centres undefined) : -0.819

// z-score value for CC(NC(=O)OCc1ccccc1)C(=O)OCN1C(=O)c2ccccc2C1=O (centres undefined) : -1.4

// z-score value for CCc1nc2n[nH]c(N)c2c2c1CSC(C)(C)C2 : 0.647

// z-score value for COc1cc(/C=N/n2nnnc2N)ccc1O : -0.705

// z-score value for CCn1c(SCC(=O)NC2CCCCC2C)nnc1-c1ccc(OC)cc1 (centres undefined) : 0.142

// z-score value for CC(C)NCc1c(O)c(Br)cc2oc3c(c12)CCCC3 : -0.158

// z-score value for O=C1c2ccccc2-c2onc3ccc(NCc4ccco4)c1c23 : -0.783

// z-score value for N#Cc1c2c(c(-c3ccco3)[nH]c1=O)CCCC2 : 0.857
